Molecular target: T1, cell-bound CD73 (human, UniProt P21589 27-549)
T1 sequence (looked up): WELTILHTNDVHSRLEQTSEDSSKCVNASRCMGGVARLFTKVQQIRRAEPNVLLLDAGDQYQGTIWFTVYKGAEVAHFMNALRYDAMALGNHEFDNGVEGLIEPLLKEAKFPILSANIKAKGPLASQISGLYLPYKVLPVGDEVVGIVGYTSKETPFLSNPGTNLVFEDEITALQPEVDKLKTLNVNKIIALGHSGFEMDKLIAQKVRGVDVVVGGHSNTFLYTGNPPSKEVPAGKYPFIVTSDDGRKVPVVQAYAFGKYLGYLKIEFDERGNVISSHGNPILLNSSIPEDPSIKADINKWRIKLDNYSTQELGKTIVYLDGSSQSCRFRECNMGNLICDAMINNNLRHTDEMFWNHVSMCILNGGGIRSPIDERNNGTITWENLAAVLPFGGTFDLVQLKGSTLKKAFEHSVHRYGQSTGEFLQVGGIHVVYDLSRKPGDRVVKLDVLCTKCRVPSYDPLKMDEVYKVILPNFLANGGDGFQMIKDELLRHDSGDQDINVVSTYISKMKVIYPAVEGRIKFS
Assay: cell-based or functional assay
# key: entry, value: IFNγ release [fold change over control], Donor E, 1 nM antibody
Measure name: IFNγ release [fold change over control], Donor E, 1 nM antibody (fold)

[[record]]
binder = "B2 (antibody, human IgG1, kappa, L234A L235A, V domains shown, Humanized monoclonal antibody; also called anti-CD73 antibody B2) VH: EVQLVESGGGLVQPGGSLRLSCAASGLTFSSYVMSWVRQAPGKGLEWVSTISSGGVSTYYPDTVKGRFTISRDNSKNTLYLQMNSLRAEDTAVYYCAKRETARATGFAYWGQGTLVTVSA VL: DIQMTQSPSSLSASVGDRVTITCKASQSVSDDVTWYQQKPGKAPKLLIYYASNRYTGVPSRFSGSGSGTDFTFTISSVQPEDIATYYCQQDYSSPWTFGGGTKLEIKR"
u = "fold"
recorded_measurement = 11.1

[[record]]
binder = "C1 (antibody, human IgG1, kappa, L234A L235A, V domains shown, Humanized monoclonal antibody; also called anti-CD73 antibody C1) VH: QVQLVQSGAEVKKPGDSVKVSCKASGYTFTTYWMHWVRQAPGQGLEWMGAIYPGFSDTTYSQKFKGKVTMTRDTSTSTVYMKLSSLRSEDTAVYYCARLLDYAMDYWGQGTLVTVSS VL: DIQMTQSPSSLSASVGDRVTITCRASQDIRSYLNWHQQKPGKAPKLLIWYTSRLHSGVPSRFSGSGSGTDYTLTISSLEPEDFATYFCQQGETLPWTFGQGTKLEIKR"
u = "fold"
recorded_measurement = 12.8

[[record]]
binder = "C4 (antibody, human IgG1, kappa, L234A L235A, V domains shown, Humanized monoclonal antibody; also called C04; inventive anti-CD73 antibody C4) VH: QVQLVQSGAEVKKPGDSVKVSCKASGYTFTTYWMHWVRQAPGQGLEWMGAIYPGLSDTTYNQKFKGKVTMTRDTSTSTVYMKLSSLRSEDTAVYYCARLLDYAMDYWGQGTLVTVSS VL: DIQMTQSPSSLSASVGDRVTITCRASQDIRSYLNWHQQKPGKAPKLLIWYTSRLHSGVPSRFSGSGSGTDYTLTISSLQPEDFATYFCQQGETLPWTFGQGTKLEIKR"
u = "fold"
recorded_measurement = 14.1

